Overview of reported Inhibition of Maximal Response across a group of binders:
- target.under.test: PTHR1 receptor
- Sequence (P25961 whole entry): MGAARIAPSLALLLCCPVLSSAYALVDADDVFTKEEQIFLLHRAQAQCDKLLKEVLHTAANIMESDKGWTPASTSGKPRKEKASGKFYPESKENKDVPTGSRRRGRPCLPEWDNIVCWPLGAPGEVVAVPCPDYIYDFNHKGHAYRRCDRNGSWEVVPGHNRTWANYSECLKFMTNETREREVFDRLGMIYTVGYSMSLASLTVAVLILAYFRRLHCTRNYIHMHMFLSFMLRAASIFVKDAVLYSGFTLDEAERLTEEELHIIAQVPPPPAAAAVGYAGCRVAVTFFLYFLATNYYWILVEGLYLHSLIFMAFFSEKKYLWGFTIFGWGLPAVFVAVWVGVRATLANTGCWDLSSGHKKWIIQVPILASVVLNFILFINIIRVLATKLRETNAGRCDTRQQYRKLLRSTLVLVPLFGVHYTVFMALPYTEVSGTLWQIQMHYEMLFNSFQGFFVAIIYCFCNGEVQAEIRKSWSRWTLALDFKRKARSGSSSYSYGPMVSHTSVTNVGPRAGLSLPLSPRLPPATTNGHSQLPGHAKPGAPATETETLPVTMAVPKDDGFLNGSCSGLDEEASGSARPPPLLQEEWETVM
* marks the point of attachment. Palmitoyl = CCCCCCCCCCCCCCCC(=O)*
Give the quantity in %, number only.

Palmitoyl-TNAGRADTRQQYRKLL-NH2 (SMILES CCCCCCCCCCCCCCCC(=O)N[C@H](C(=O)N[C@@H](CC(N)=O)C(=O)N[C@@H](C)C(=O)NCC(=O)N[C@@H](CCCNC(=N)N)C(=O)N[C@@H](C)C(=O)N[C@@H](CC(=O)O)C(=O)N[C@H](C(=O)N[C@@H](CCCNC(=N)N)C(=O)N[C@@H](CCC(N)=O)C(=O)N[C@@H](CCC(N)=O)C(=O)N[C@@H](Cc1ccc(O)cc1)C(=O)N[C@@H](CCCNC(=N)N)C(=O)N[C@@H](CCCCN)C(=O)N[C@@H](CC(C)C)C(=O)N[C@@H](CC(C)C)C(N)=O)[C@@H](C)O)[C@@H](C)O) [Compound 77]	9.9
Palmitoyl-LAYFRRLHSTRNYIH-NH2 (SMILES CCCCCCCCCCCCCCCC(=O)N[C@@H](CC(C)C)C(=O)N[C@@H](C)C(=O)N[C@@H](Cc1ccc(O)cc1)C(=O)N[C@@H](Cc1ccccc1)C(=O)N[C@@H](CCCNC(=N)N)C(=O)N[C@@H](CCCNC(=N)N)C(=O)N[C@@H](CC(C)C)C(=O)N[C@@H](Cc1c[nH]cn1)C(=O)N[C@@H](CO)C(=O)N[C@H](C(=O)N[C@@H](CCCNC(=N)N)C(=O)N[C@@H](CC(N)=O)C(=O)N[C@@H](Cc1ccc(O)cc1)C(=O)N[C@H](C(=O)N[C@@H](Cc1c[nH]cn1)C(N)=O)[C@@H](C)CC)[C@@H](C)O) [Compound 5]	13
Palmitoyl-HSLIFMAFFSEKKYL-NH2 (SMILES CCCCCCCCCCCCCCCC(=O)N[C@@H](Cc1c[nH]cn1)C(=O)N[C@@H](CO)C(=O)N[C@@H](CC(C)C)C(=O)N[C@H](C(=O)N[C@@H](Cc1ccccc1)C(=O)N[C@@H](CCSC)C(=O)N[C@@H](C)C(=O)N[C@@H](Cc1ccccc1)C(=O)N[C@@H](Cc1ccccc1)C(=O)N[C@@H](CO)C(=O)N[C@@H](CCC(=O)O)C(=O)N[C@@H](CCCCN)C(=O)N[C@@H](CCCCN)C(=O)N[C@@H](Cc1ccc(O)cc1)C(=O)N[C@@H](CC(C)C)C(N)=O)[C@@H](C)CC) [Compound 33]	27.5

Lab note: next binder to report on.
// lookup Inhibition of Maximal Response for Palmitoyl-RRLHSTRNYIH-NH2 (SMILES CCCCCCCCCCCCCCCC(=O)N[C@@H](CCCNC(=N)N)C(=O)N[C@@H](CCCNC(=N)N)C(=O)N[C@@H](CC(C)C)C(=O)N[C@@H](Cc1c[nH]cn1)C(=O)N[C@@H](CO)C(=O)N[C@H](C(=O)N[C@@H](CCCNC(=N)N)C(=O)N[C@@H](CC(N)=O)C(=O)N[C@@H](Cc1ccc(O)cc1)C(=O)N[C@H](C(=O)N[C@@H](Cc1c[nH]cn1)C(N)=O)[C@@H](C)CC)[C@@H](C)O) [Compound 2]
-24.9
